List of EC50 for [Ca2+] values.
# target.system: T1, FPR1 (UniProt P21462 1-350, limits assumed)
# T1 sequence (looked up): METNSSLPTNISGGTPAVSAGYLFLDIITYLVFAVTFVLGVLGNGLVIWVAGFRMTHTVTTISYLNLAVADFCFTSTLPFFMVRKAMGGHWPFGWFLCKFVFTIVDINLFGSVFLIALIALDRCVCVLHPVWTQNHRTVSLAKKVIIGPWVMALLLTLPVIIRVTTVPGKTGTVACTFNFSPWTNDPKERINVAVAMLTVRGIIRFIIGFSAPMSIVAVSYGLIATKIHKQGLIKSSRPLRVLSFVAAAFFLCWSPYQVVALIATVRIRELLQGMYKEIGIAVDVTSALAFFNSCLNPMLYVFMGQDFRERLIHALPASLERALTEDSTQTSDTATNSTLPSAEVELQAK
# assay: cell-based or functional assay

* RMRYRVM (HELM PEPTIDE1{R.M.R.Y.R.V.[dM].[am]}$$$$V2.0; N-terminus assumed; SMILES CSCC[C@H](NC(=O)[C@@H](N)CCCNC(=N)N)C(=O)N[C@@H](CCCNC(=N)N)C(=O)N[C@@H](Cc1ccc(O)cc1)C(=O)N[C@@H](CCCNC(=N)N)C(=O)N[C@H](C(=O)N[C@H](CCSC)C(N)=O)C(C)C) [peptide of SEQ ID NO 30] | > 10 µM
* MRYKPM (HELM PEPTIDE1{[CCCCCCCC(=O)[*:2]].M.R.Y.K.P.[dM].[am]}$$$$V2.0; SMILES CCCCCCCC(=O)N[C@@H](CCSC)C(=O)N[C@@H](CCCNC(=N)N)C(=O)N[C@@H](Cc1ccc(O)cc1)C(=O)N[C@@H](CCCCN)C(=O)N1CCC[C@H]1C(=O)N[C@H](CCSC)C(N)=O) [peptide of SEQ ID NO 57] | > 10 µM

Consider now this further binder.
Request: Entry under review: KMKYKVM (HELM PEPTIDE1{[CCCCCCCC(=O)[*:2]].K.M.K.Y.K.V.[dM].[am]}$$$$V2.0; SMILES CCCCCCCC(=O)N[C@@H](CCCCN)C(=O)N[C@@H](CCSC)C(=O)N[C@@H](CCCCN)C(=O)N[C@@H](Cc1ccc(O)cc1)C(=O)N[C@@H](CCCCN)C(=O)N[C@H](C(=O)N[C@H](CCSC)C(N)=O)C(C)C) [peptide of SEQ ID NO 12] . Reported EC50 for [Ca2+]?
Result: > 10 µM

src = patent US20250361268A1
